Every entry's value here was drawn from patent US5395947A.

Some compounds, each annotated with its measured T/C (%).
System: murine leukemia L1210
Method: Antitumor activity test on murine leukemia L1210 in vivo
Design: species or system male BDF1 mice
Condition Parameters: 25 mg/kg i.p., days 1, 5, 9
Return type: number; implicit unit %.

A selection of reference data follows.
CCC1(CC)OC2C[NH2+][Pt-2]3([NH2+]CC2O1)[O]C(=O)CC(=O)[O]3 (stereo not drawn) :: 180
CC1OC2C[NH2+][Pt-2]3([NH2+]CC2O1)[O]C(=O)C1(CCC1)C(=O)[O]3 (stereo not drawn) [Example 23] :: 150
O=C1CC(=O)[O][Pt-2]2([NH2+]CC3OCOC3C[NH2+]2)[O]1 (stereo not drawn) :: 133
CCC1OC2C[NH2+][Pt-2]3([NH2+]CC2O1)[O]C(=O)CC(=O)[O]3 (stereo not drawn) :: 204
CC1[O][Pt][O]C1=O.NCC1OC2(CCCC2)OC1CN (stereo not drawn) :: 243

Record summary for O=C1[O][Pt-2]2([NH2+]CC3OC4(CCCC4)OC3C[NH2+]2)[O]C(=O)C12CCC2 (stereo not drawn) [Example 31] : reported T/C (%) = 94

T/C (%) reading for CC(C)C1OC(CN)C(CN)O1.CC1[O][Pt][O]C1=O (stereo not drawn) : 232

###

This section presents molecules with their documented Number of dead mice, 1st day values.
System: ICR mice
Method: Acute toxicity test
Format: in vivo
Condition Parameters: male, 32.5 mg/kg i.p.

Solved cases below.
NC[C@H]1OC2(CCCCC2)O[C@@H]1CN.O=C1C[O][Pt][O]1 :: 0/6
NC[C@H]1OC2(CCCC2)O[C@@H]1CN.O=C1C[O][Pt][O]1 :: 0/6
CC(C)C1O[C@H](CN)[C@@H](CN)O1.O=C1C[O][Pt][O]1 :: 0/6
CC1(C)O[C@H](CN)[C@@H](CN)O1.O=C1C[O][Pt][O]1 :: 0/6

Number of dead mice, 1st day reported for this molecule `CCC1O[C@H](CN)[C@@H](CN)O1.O=C1C[O][Pt][O]1` : 0/6

###

System: ICR mice
Method: Acute toxicity test
Assay type: in vivo
Condition Parameters: female, 71.4 mg/kg i.p.
Here the recorded Number of dead mice, 5th day is given for each entry.

As a guide, the following entries are already answered.
CC1[O][Pt][O]C1=O.NCC1OC2(CCCC2)OC1CN (centres unmarked) [Example 15] :: 3/5
CCC1(CC)OC2C[NH2+][Pt-2]3([NH2+]CC2O1)[O]CC(=O)[O]3 (centres unmarked) [Example 8] :: 3/4
CCC1(C)OC2C[NH2+][Pt-2]3([NH2+]CC2O1)[O]CC(=O)[O]3 (centres unmarked) [Example 9] :: 1/2

// CC1[O][Pt][O]C1=O.CCC1OC(CN)C(CN)O1 (centres unmarked) [Example 18] : Number of dead mice, 5th day value = 3/5

Notebook: CC(C)C1OC(CN)C(CN)O1.CC1[O][Pt][O]C1=O (centres unmarked) [Example 19] , Number of dead mice, 5th day read as 3/5

###

A collection of molecules and their measured Lethality
System: ICR mice
Method: Acute toxicity test
Assay type: in vivo
Set-up: unit not given here
Condition Parameters: male, 41.3 mg/kg i.p.; 10080 min
Lab note: write the figure by itself, no unit.

CCC1(C)OC2C[NH2+][Pt-2]3([NH2+]CC2O1)[O]CC(=O)[O]3 (centres unmarked) [Example 9] :: 0.0
CC1[O][Pt][O]C1=O.CCC1OC(CN)C(CN)O1 (centres unmarked) [Example 18] :: 66.7
CC1[O][Pt][O]C1=O.NCC1OC2(CCCC2)OC1CN (centres unmarked) [Example 15] :: 0.0

Entry CC(C)C1OC(CN)C(CN)O1.CC1[O][Pt][O]C1=O (centres unmarked) [Example 19] — recorded Lethality = 50.0

Input CCC1(CC)OC2C[NH2+][Pt-2]3([NH2+]CC2O1)[O]CC(=O)[O]3 (centres unmarked) [Example 8] . Output Lethality: 0.0
